- System name: MLK3 (Homo sapiens, UniProt Q16584)
- Construct: purchased Dundee DU8313
- Sequence (Q16584 whole entry): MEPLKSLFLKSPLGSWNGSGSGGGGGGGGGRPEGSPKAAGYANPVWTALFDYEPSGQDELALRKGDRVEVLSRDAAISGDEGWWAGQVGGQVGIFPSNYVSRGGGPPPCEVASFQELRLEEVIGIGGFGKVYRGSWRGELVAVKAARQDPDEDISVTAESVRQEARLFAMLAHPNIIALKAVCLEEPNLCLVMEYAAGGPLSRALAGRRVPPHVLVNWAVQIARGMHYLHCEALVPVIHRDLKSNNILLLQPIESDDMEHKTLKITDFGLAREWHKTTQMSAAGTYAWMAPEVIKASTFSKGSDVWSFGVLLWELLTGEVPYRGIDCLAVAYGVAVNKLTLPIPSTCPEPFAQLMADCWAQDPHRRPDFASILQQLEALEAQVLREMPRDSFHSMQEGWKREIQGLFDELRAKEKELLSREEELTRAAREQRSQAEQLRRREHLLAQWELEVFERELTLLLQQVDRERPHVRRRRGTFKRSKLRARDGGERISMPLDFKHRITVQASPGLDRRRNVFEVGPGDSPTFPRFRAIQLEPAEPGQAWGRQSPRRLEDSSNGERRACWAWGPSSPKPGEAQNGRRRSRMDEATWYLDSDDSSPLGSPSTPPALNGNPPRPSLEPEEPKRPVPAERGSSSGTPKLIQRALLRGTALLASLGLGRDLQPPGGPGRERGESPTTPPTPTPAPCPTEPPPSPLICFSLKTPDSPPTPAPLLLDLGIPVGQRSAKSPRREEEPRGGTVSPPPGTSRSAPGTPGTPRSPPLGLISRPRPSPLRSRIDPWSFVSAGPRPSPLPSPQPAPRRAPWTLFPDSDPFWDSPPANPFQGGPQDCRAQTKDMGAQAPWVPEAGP
- Method description: Radiometric filter plate MLK3 assay; also: 2 µM cold ATP (Km)
- Assay type: biochemical
- Test conditions: read-out: MK3 IC50
pIC50: −log10 of the molar value. Counter-ions that a name gives are not always drawn.
Value type: pIC50

1. COc1cc(-c2cnc3[nH]c(=O)n(-c4ccc(N5CCOCC5)nc4)c3n2)cc(OC)c1OC [Example 109] = < 6.00
2. CN1CCN(Cc2ccc(-c3cnc4[nH]cc(-c5ccc6[nH]ccc6c5)c4c3)cc2)CC1=O [Example 141] = > 7.00
3. Cc1cc(C)cc(-c2cnc3[nH]c(=O)n(-c4ccc5cn[nH]c5c4)c3n2)c1 [Example 95] = < 6.00
4. Cc1cc2cc(-n3c(=O)[nH]c4ncc(-c5ccncc5)nc43)ccc2[nH]1 [Example 85] = < 6.00
5. O=c1[nH]c2ncc(-c3ccncc3)nc2n1-c1ccc2scnc2c1 [Example 98] = < 6.00
6. COc1cc(-c2cnc3[nH]c(=O)n(C4Cc5ccccc5C4)c3n2)cc(OC)c1OC [Example 110] = > 7.00
7. COc1cc(-c2cnc3c(c2)C(Cc2cccnc2)C(=O)N3)cc(OC)c1OC (centres unmarked) [Example 135] = < 6.00
8. COc1cc(-c2cnc3[nH]cc(-c4ccc(N)nc4)c3c2)cc(OC)c1OC [Example 18] = > 7.00
9. NC(=O)c1ccc(-c2c[nH]c3ncc(-c4ccc(C(=O)N5CCNCC5)cc4)cc23)cc1 [Example 149, hydrochloride salt] = > 7.00
10. c1cc2cc(-c3c[nH]c4ncc(-c5ccc(NCCN6CCCC6)nc5)cc34)ccc2[nH]1 [Example 31] = 6.00 to 7.00
11. c1cc2cc(-c3c[nH]c4ncc(-c5ccc(CN6CCOCC6)cc5)cc34)ccc2[nH]1 [Example 169] = > 7.00

###

- System name: MLK3 (Homo sapiens, UniProt Q16584)
- Construct: purchased Dundee DU8313
- Method description: Radiometric filter plate MLK3 assay; also: 2 µM cold ATP (Km)
- Assay type: biochemical
- Test conditions: read-out: MK3 IC50
pIC50: −log10 of the molar value.
Value type: pIC50

1. O=c1[nH]c2ncc(-c3ccc(O)cc3)nc2n1CC1CC1 = < 6.00
2. COc1cc(-c2cnc3[nH]c(=O)n(-c4ccc5[nH]cnc5c4)c3n2)cc(OC)c1OC = > 7.00
3. CN1CCN(C(=O)c2ccc(-c3cnc4[nH]cc(-c5ccc6[nH]ccc6c5)c4c3)cc2)CC1 = 6.00 to 7.00
4. O=C1CN(Cc2ccc(-c3cnc4[nH]cc(-c5ccc6[nH]ccc6c5)c4c3)cc2)CCN1 = > 7.00
5. COc1ccc(-c2cnc3[nH]c(=O)n(C4CCCC4)c3n2)cc1OC = < 6.00
6. CCS(=O)(=O)N1CCN(Cc2ccc(-c3cnc4[nH]cc(-c5ccc6[nH]ccc6c5)c4c3)cc2)CC1 = > 7.00
7. COc1cc(-c2cnc3c(c2)C(=Cc2cccc(C#N)c2)C(=O)N3)cc(OC)c1OC (mixture of isomers) = < 6.00
8. CC(C)(C)OC(=O)N1CCN(C(=O)c2cccc(-c3cnc4[nH]cc(-c5ccc(C(N)=O)cc5)c4c3)c2)CC1 = > 7.00
9. COc1cc(-c2cnc3[nH]cc(-c4ccc(N(C)C)nc4)c3c2)cc(OC)c1OC = > 7.00
10. COc1cc(-c2cnc3[nH]c(=O)n(-c4ccc5[nH]ccc5c4)c3n2)ccc1OCCN1CCOCC1 = > 7.00
11. COc1ccc(-n2c(=O)[nH]c3ncc(-c4ccc(OC)c(OC)c4)nc32)cc1 = < 6.00
12. Cc1cc(C)cc(-c2cnc3[nH]c(=O)n(-c4ccc5c(ccn5C)c4)c3n2)c1 = < 6.00
13. CC(C)CC(=O)N1CCN(Cc2ccc(-c3cnc4[nH]cc(-c5ccc6[nH]ccc6c5)c4c3)cc2)CC1 = > 7.00
14. COc1cc(-c2cc3c(-c4ccc(C(N)=O)cc4)c[nH]c3[n+]([O-])c2)cc(OC)c1OC = 6.00 to 7.00
15. CN1CCN(Cc2ccc(-c3cnc4[nH]cc(-c5cnc6[nH]ccc6c5)c4c3)cc2)CC1 = > 7.00
16. CC(C)C(=O)N1CCN(Cc2ccc(-c3cnc4[nH]cc(-c5ccc6[nH]ccc6c5)c4c3)cc2)CC1 = > 7.00
17. COc1ccc(-c2cnc3[nH]c(=O)n(-c4ccc5[nH]ncc5c4)c3n2)cc1OC = < 6.00
18. COc1cc(-c2cnc3[nH]c(=O)n(-c4ccc5[nH]ccc5c4)c3c2)cc(OC)c1OC = 6.00 to 7.00
19. O=c1[nH]c2ncc(-c3ccc(N4CCOCC4)cc3)nc2n1-c1ccc2[nH]ncc2c1 = < 6.00
20. CN1CCN(Cc2ccc(-c3cnc4[nH]cc(-c5ccc6ncccc6c5)c4c3)cc2)CC1 = > 7.00
21. COc1cc(-c2cnc3[nH]cc(-c4ccc(C(N)=O)cc4)c3c2)cc(OC)c1OC = > 7.00
22. CS(=O)(=O)N1CCN(Cc2ccc(-c3cnc4[nH]cc(-c5ccc6[nH]ccc6c5)c4c3)cc2)CC1 = > 7.00
23. CNC(=O)c1ccc(-c2c[nH]c3ncc(-c4ccc(CN5CCN(C)CC5)cc4)cc23)cc1 = > 7.00
24. COc1ccc(-c2cnc3[nH]cc(-c4ccc5[nH]ccc5c4)c3n2)cc1OC = > 7.00
25. COc1cc(-c2cnc3[nH]c(=O)n(-c4ccc5[nH]ccc5c4)c3n2)cc(OC)c1OC = > 7.00
26. COc1cc(-c2nc3c(nc2Cl)[nH]c(=O)n3CC2CC2)cc(OC)c1OC = < 6.00
27. COc1cc(-c2cnc3[nH]cc(-c4ccc5[nH]ccc5c4)c3n2)ccc1N = > 7.00
28. COc1ccc(-c2cnc3[nH]cc(-c4ccc(C(N)=O)cc4)c3c2)cc1OC = > 7.00
29. CN(C)Cc1ccc(-c2cnc3[nH]cc(-c4ccc5[nH]ccc5c4)c3c2)cc1 = > 7.00

###

- System name: MLK3 (Homo sapiens)
- Construct: purchased Dundee DU8313
- Method description: Radiometric filter plate MLK3 assay; also: 2 µM cold ATP (Km)
- Type: biochemical
- Test conditions: read-out: MK3 IC50
Value type: IC50

1) COc1cc(-c2cnc3[nH]cc(-c4cnc(N)nc4)c3c2)cc(OC)c1OC [Example 17] = < 100 nM
2) COc1cc(-c2cnc3c(c2)C(=Cc2ccccc2)C(=O)N3)cc(OC)c1OC [Example 130] = > 1000 nM
3) CC(C)(C)OC(=O)N1CCN(Cc2ccc(-c3cnc4[nH]cc(-c5ccc6[nH]ccc6c5)c4c3)cc2)CC1 [Example 144] = < 100 nM
4) O=c1[nH]c2ncc(-c3cc(Cl)cc(Cl)c3)nc2n1CC1CC1 [Example 80] = > 1000 nM
5) Cc1cc2cc(-n3c(=O)[nH]c4ncc(-c5cc(Cl)cc(Cl)c5)nc43)ccc2[nH]1 [Example 73] = > 1000 nM
6) c1ccc(CN2CCN(Cc3ccc(-c4cnc5[nH]cc(-c6ccc7[nH]ccc7c6)c5c4)cc3)CC2)cc1 [Example 178] = 100 to 1000 nM
7) CN1CCN(c2cc(-c3cnc4[nH]cc(-c5ccc6[nH]ccc6c5)c4c3)ccn2)CC1 [Example 7] = < 100 nM
8) Nc1ccc(-c2cnc3[nH]cc(-c4ccc5[nH]ccc5c4)c3c2)cn1 [Example 4] = < 100 nM
9) CCOC(=O)N1CCN(Cc2ccc(-c3cnc4[nH]cc(-c5ccc6[nH]ccc6c5)c4c3)cc2)CC1 [Example 183] = < 100 nM
10) CC1CN(Cc2ccc(-c3cnc4[nH]cc(-c5ccc6[nH]ccc6c5)c4c3)cc2)CCN1C (stereo not shown) [Example 198] = < 100 nM
11) O=c1[nH]c2ncc(-c3ccc(N4CCOCC4)cc3)nc2n1-c1ccc2scnc2c1 [Example 100] = > 1000 nM
12) CN1CCN(Cc2cccc(-c3cnc4[nH]cc(-c5ccc(C(N)=O)cc5)c4c3)c2)CC1 [Example 156] = < 100 nM
13) COc1cc(-c2cnc3[nH]cc(-c4ccc5c(ccn5C)c4)c3c2)cc(OC)c1OC [Example 24] = < 100 nM
14) COc1cc(-c2cnc3c(c2)C(=Cc2ccc(C#N)cc2)C(=O)N3)cc(OC)c1OC [Example 133] = > 1000 nM
15) COc1cc(-c2cnc3c(c2)C(CC2CC2)C(=O)N3)cc(OC)c1OC (stereo not shown) [Example 123] = 100 to 1000 nM
16) O=c1[nH]c2ncc(-c3ccncc3)nc2n1C1CCCC1 [Example 77] = > 1000 nM
17) O=c1[nH]c2ncc(-c3ccncc3)nc2n1-c1ccc2[nH]ncc2c1 [Example 88] = > 1000 nM
18) CN1CCN(Cc2ccc(-c3cnc4[nH]cc(-c5ccc(C(F)(F)F)cc5)c4c3)cc2)CC1 [Example 171] = > 1000 nM
19) CN1CCN(Cc2ccc(-c3c[nH]c4ncc(-c5ccc6[nH]ccc6c5)cc34)cc2)CC1 [Example 163] = > 1000 nM
20) COc1cc(-c2cnc3[nH]c(=O)n(C4CCCC4)c3n2)cc(OC)c1OC [Example 74] = < 100 nM
21) COc1cc(-c2cnc3c(c2)C(=Cc2cccc(C(N)=O)c2)C(=O)N3)cc(OC)c1OC [Example 132] = > 1000 nM
22) COc1cc(-c2cnc3[nH]c(=O)n(-c4ccc5[nH]ccc5c4)c3n2)ccc1N [Example 60] = < 100 nM
23) COc1ccc(-n2c(=O)[nH]c3ncc(-c4ccc(O)cc4)nc32)cc1 [Example 70] = > 1000 nM
24) CCC(=O)N1CCN(Cc2ccc(-c3cnc4[nH]cc(-c5ccc6[nH]ccc6c5)c4c3)cc2)CC1 [Example 187] = < 100 nM
25) COc1cc(-c2cnc3c(c2)C(=Cc2ccc(C(N)=O)cc2)C(=O)N3)cc(OC)c1OC [Example 131] = 100 to 1000 nM
26) CN1CCN(c2cc(-c3cnc4[nH]c(=O)n(-c5ccc6[nH]ccc6c5)c4n3)ccn2)CC1 [Example 66] = > 1000 nM
27) CN1CCN(Cc2cccc(-c3cnc4[nH]cc(-c5ccc6[nH]ccc6c5)c4c3)c2)CC1=O [Example 143] = < 100 nM
28) Cn1ccc2cc(-n3c(=O)[nH]c4ncc(-c5ccc(O)cc5)nc43)ccc21 [Example 42] = > 1000 nM
